# pIC50 annotations
# target_or_test_system: Estrogen receptor beta (Homo sapiens, UniProt Q92731)
# Sequence (Q92731 whole entry): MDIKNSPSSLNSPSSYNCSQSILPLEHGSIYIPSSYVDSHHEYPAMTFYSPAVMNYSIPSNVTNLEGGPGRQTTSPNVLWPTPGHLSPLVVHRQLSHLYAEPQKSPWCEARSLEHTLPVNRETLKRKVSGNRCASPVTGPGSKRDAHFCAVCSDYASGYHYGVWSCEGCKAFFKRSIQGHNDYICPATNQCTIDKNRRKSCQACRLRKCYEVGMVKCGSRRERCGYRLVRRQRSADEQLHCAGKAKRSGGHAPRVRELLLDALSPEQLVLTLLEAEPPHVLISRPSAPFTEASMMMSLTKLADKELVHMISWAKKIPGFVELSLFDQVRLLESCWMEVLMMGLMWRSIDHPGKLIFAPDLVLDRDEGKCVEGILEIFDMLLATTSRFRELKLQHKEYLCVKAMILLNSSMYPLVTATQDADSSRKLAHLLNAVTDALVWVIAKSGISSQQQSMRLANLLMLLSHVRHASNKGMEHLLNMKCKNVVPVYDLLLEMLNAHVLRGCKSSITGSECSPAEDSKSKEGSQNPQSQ
# procedure_text: Displacement of fluorescein-labeled estradiol from human recombinant ERbeta by fluorescence polarization assay
pIC50: −log10 of the molar value.
measured_property: pIC50

- compound: "CCCC[C@@H]1C[C@H]1[C@@H](NC(=O)c1ccccc1)c1ccc(-c2ccc(O)cc2)cc1F (relative stereo)"
  value: 5.69
- compound: "CCCC[C@@H]1C[C@H]1[C@@H](N)c1ccc(-c2ccc(O)cc2)cc1F.Cl (relative stereo)"
  value: 4.82
- compound: "O/N=C/c1ccc(-c2ccc(O)cc2)cc1F"
  value: 7.49
